target: UniProt:P03146; type: biochemical; settings: read-out: Assembly Activity (IC50); BODIPY-FL labelled core protein, assembly started with NaCl, read after 6 min
Sequence (P03146 whole entry, looked up): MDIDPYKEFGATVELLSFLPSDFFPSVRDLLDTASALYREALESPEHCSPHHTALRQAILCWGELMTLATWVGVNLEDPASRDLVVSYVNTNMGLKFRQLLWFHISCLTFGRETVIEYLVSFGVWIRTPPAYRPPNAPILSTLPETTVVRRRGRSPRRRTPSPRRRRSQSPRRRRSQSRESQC
In this section we review reported IC50 values for a set of compounds.

smiles string: CS(=O)(=O)CCNc1nc2c(s1)CN(C(=O)c1cc3ccccc3[nH]1)CC2
IC50: < 5 µM

smiles string: O=C(c1cc2ccccc2[nH]1)N1CCc2nc(NC3COC3)sc2C1
IC50: < 5 µM

smiles string: Nc1nc2c(s1)CN(C(=O)c1cc3c(F)c(F)c(F)cc3[nH]1)CC2
IC50: < 5 µM

smiles string: CC(C)(C)Nc1nc2c(s1)CN(C(=O)c1cc3ccccc3[nH]1)CC2
IC50: < 5 µM

Now look at this entry.
For this compound ( Cc1cc(F)cc2[nH]c(C(=O)N3CCc4nc(NC(=O)C5CCOCC5)sc4C3)cc12 ), measured IC50 is < 5 µM
